Species: Rattus norvegicus
Experiment: Open TG-GATES - Regimen: Single
Format: toxicity, organism-based, Sprague-Dawley
Set-up: regimen Single, gender Male, age 6 weeks
Conditions: in vivo, po, 0 mg/kg, 6 h, tissue Plasma, route gavage, dose level Control
// NB: equality with 70 IU/L counts as Criterion not met; only AST strictly below is Criterion met

Req: Criterion: AST strictly below 70 IU/L. Is it met by ClC(Cl)(Cl)Cl [CARBON TETRACHLORIDE] ?
Resp: Criterion met

Req: # TODO verify AST < 70 IU/L strictly for this compound: O=NN(CCCl)C(=O)NC1CCCCC1
Resp: Criterion met

Req: Dear reviewer, please state whether CCc1oc2ccccc2c1C(=O)c1cc(Br)c(O)c(Br)c1 has AST strictly beneath 70 IU/L.
Resp: Criterion met

---

Species: Rattus norvegicus
Assay: Open TG-GATES - Regimen: Daily Repeat
Assay type: toxicity, organism-based, Sprague-Dawley
Parameters: regimen Daily Repeat, gender Male, age 6 weeks
Conditions: in vivo, po, 0 mg/kg, 72 h, tissue Blood, route gavage, dose level Control, time 3 day
PROPERTY_NAME: PT (s)
Use s as the unit, but write only the number.

In [3]: df
Out[3]:
                                   compound  reported_result
0  CC[C@H]1[C@@H]2C[C@H]3[C@@H]4N(C)c5ccccc5[C@]45C[C@@H]([C@@H]2[C@H]5O)N3[C@@H]1O             11.6
1  OCCOCCN1CCN(C(c2ccccc2)c2ccc(Cl)cc2)CC1 (stereo not given) [HYDROXYZINE]             15.7
2   CCc1oc2ccccc2c1C(=O)c1cc(Br)c(O)c(Br)c1             11.7
3            CCC1(c2ccccc2)C(=O)NC(=O)NC1=O               12
4  CC1=C(CC(=O)O)c2cc(F)ccc2/C1=C\c1ccc([S+](C)[O-])cc1 (stereo not given)             13.8
5  CC(C)N(CCC(C(N)=O)(c1ccccc1)c1ccccn1)C(C)C (stereo not given) [DISOPYRAMIDE]             15.8
6  CCCCc1oc2ccccc2c1C(=O)c1cc(I)c(OCCN(CC)CC)c(I)c1             12.3
7      ClC(Cl)(Cl)Cl [CARBON TETRACHLORIDE]             11.6
8                  O=NN(CCCl)C(=O)NC1CCCCC1             11.8

Req: Could you please provide reported PT for CN(C)C(=N)N=C(N)N ? Thanks!
Resp: 12.6

---

Species on record: Rattus norvegicus
Assay: Open TG-GATES - Regimen: Single
Assay type: toxicity, organism-based, Sprague-Dawley
Design: regimen Single, gender Male, age 6 weeks
Conditions: in vivo, po, 0 mg/kg, 24 h, tissue Plasma, route gavage, dose level Control
PROPERTY_NAME: CRE
Value and unit, in that order.

Req: Please report the measured CRE for O=NN1CCOCC1
Resp: 0.2 mg/dL

Req: Assign CRE to the following record: CC(C)N(CCC(C(N)=O)(c1ccccc1)c1ccccn1)C(C)C (stereo unspecified) [DISOPYRAMIDE]
Resp: 0.2 mg/dL

Req: Complete the entry with CRE for CN(C)CCC=C1c2ccccc2COc2ccccc21 [DOXEPIN]
Resp: 0.2 mg/dL

Req: Given OCCOCCN1CCN(C(c2ccccc2)c2ccc(Cl)cc2)CC1 (stereo unspecified) [HYDROXYZINE] , respond with its CRE.
Resp: 0.1 mg/dL

Req: Read the entry CN(C)C(=N)N=C(N)N and write its reported CRE.
Resp: 0.2 mg/dL

Req: Given CCc1oc2ccccc2c1C(=O)c1cc(Br)c(O)c(Br)c1 , respond with its CRE.
Resp: 0.6 mg/dL

---

Species on record: Rattus norvegicus
Test: Open TG-GATES - Regimen: Single
Type: toxicity, organism-based, Sprague-Dawley
Design: regimen Single, gender Male, age 6 weeks
Settings: in vivo, po, 0 mg/kg, 6 h, tissue Plasma, route gavage, dose level Control
PROPERTY_NAME: CRE
Enter the number, and then the unit.

Use these answered entries as a reference point.
>>> df
                                   molecule  reported_result
0   CCc1oc2ccccc2c1C(=O)c1cc(Br)c(O)c(Br)c1        0.5 mg/dL
1                         CN(C)C(=N)N=C(N)N        0.1 mg/dL
2      ClC(Cl)(Cl)Cl [CARBON TETRACHLORIDE]        0.4 mg/dL
3  CN(C)CCC=C1c2ccccc2COc2ccccc21 [DOXEPIN]        0.2 mg/dL
4  CC[C@H]1[C@@H]2C[C@H]3[C@@H]4N(C)c5ccccc5[C@]45C[C@@H]([C@@H]2[C@H]5O)N3[C@@H]1O        0.5 mg/dL
5            CCC1(c2ccccc2)C(=O)NC(=O)NC1=O        0.4 mg/dL
6  OCCOCCN1CCN(C(c2ccccc2)c2ccc(Cl)cc2)CC1 (stereo not given) [HYDROXYZINE]        0.2 mg/dL
7                  O=NN(CCCl)C(=O)NC1CCCCC1        0.5 mg/dL

Req: State its CRE for this molecule: CC1=C(CC(=O)O)c2cc(F)ccc2/C1=C\c1ccc([S+](C)[O-])cc1 (stereo not given)
Resp: 0.2 mg/dL

Req: Identify measured CRE associated with CC(C)N(CCC(C(N)=O)(c1ccccc1)c1ccccn1)C(C)C (stereo not given) [DISOPYRAMIDE]
Resp: 0.1 mg/dL

---

MCHC reference
Species on record: Rattus norvegicus
Experiment: Open TG-GATES - Regimen: Daily Repeat
Format: toxicity, organism-based, Sprague-Dawley
Set-up: regimen Daily Repeat, gender Male, age 6 weeks
Conditions: in vivo, po, 0 mg/kg, […], tissue Blood, route gavage, dose level Control, time 28 day
Write it as a number; the unit % goes unstated.

The cases that follow already have their MCHC on record.
>>> df
                                   compound  property_name  reported_result
0  CCCCc1oc2ccccc2c1C(=O)c1cc(I)c(OCCN(CC)CC)c(I)c1           MCHC             35.4
1  CC1=C(CC(=O)O)c2cc(F)ccc2/C1=C\c1ccc([S+](C)[O-])cc1 (stereo unspecified)           MCHC             32.9
2  OCCOCCN1CCN(C(c2ccccc2)c2ccc(Cl)cc2)CC1 (stereo unspecified) [HYDROXYZINE]           MCHC             34.7
3   CCc1oc2ccccc2c1C(=O)c1cc(Br)c(O)c(Br)c1           MCHC             33.3
4            CCC1(c2ccccc2)C(=O)NC(=O)NC1=O           MCHC             33.2
5      ClC(Cl)(Cl)Cl [CARBON TETRACHLORIDE]           MCHC             34.6

Req: For the compound CC[C@H]1[C@@H]2C[C@H]3[C@@H]4N(C)c5ccccc5[C@]45C[C@@H]([C@@H]2[C@H]5O)N3[C@@H]1O , report MCHC.
Resp: 33.5

Req: Please give measured MCHC of the following entry: CN(C)C(=N)N=C(N)N
Resp: 34.7

Req: Give MCHC for CN(C)CCC=C1c2ccccc2COc2ccccc21 [DOXEPIN]
Resp: 35.3

Req: Give the reported value of MCHC for this record: O=NN(CCCl)C(=O)NC1CCCCC1
Resp: 33.5

Req: Fill in reported MCHC for this entry: CC(C)N(CCC(C(N)=O)(c1ccccc1)c1ccccn1)C(C)C (stereo unspecified) [DISOPYRAMIDE]
Resp: 33.5

---

Species: Rattus norvegicus
Assay: Open TG-GATES - Regimen: Daily Repeat
Format: toxicity, organism-based, Sprague-Dawley
Design: regimen Daily Repeat, gender Male, age 6 weeks
Conditions: in vivo, po, 0 mg/kg, […], tissue Kidney, route gavage, dose level Control, time 28 day
PROPERTY_NAME: KIDNEY_R (g)
Report the figure in g without appending any unit label.

Below: 5 compounds and their reported KIDNEY_R.
>>> print(df.to_string())
                                   compound  reported_result
0                         CN(C)C(=N)N=C(N)N              1.4
1            CCC1(c2ccccc2)C(=O)NC(=O)NC1=O              1.4
2  CN(C)CCC=C1c2ccccc2COc2ccccc21 [DOXEPIN]              1.4
3      ClC(Cl)(Cl)Cl [CARBON TETRACHLORIDE]              1.4
4  CCCCc1oc2ccccc2c1C(=O)c1cc(I)c(OCCN(CC)CC)c(I)c1              1.3

Okay, next one:
Req: Determine from records and report KIDNEY_R for CC(C)N(CCC(C(N)=O)(c1ccccc1)c1ccccn1)C(C)C (stereo unspecified) [DISOPYRAMIDE]
Resp: 1.6

The measurements presented in this section are drawn from ChEMBL document CHEMBL3885861.
